Recorded values, source patent US20050245594A1.

protocol.description: Crossover PK study: plasma sumatriptan by LC/MS/MS after ID/junctional vs SC administration (Tmax, Cmax, AUC, relative F)
Assay type: in vivo, Yucatan miniswine
recorded.conditions: Yucatan miniswine, minipig, plasma, 1 × 1.5 mm × 30 g, 0 mg/ml
property.name: Cmax (ng/mL)
Give the number; ng/mL is assumed, so skip it.

Incoming: Suppose we examine the molecule CNS(=O)(=O)Cc1ccc2[nH]cc(CCN(C)C)c2c1 ; what Cmax value has been reported?
Outgoing: 824

====

protocol.description: Crossover PK study: plasma sumatriptan by LC/MS/MS after ID/junctional vs SC administration (Tmax, Cmax, AUC, relative F)
Assay type: in vivo, Yucatan miniswine
recorded.conditions: Yucatan, minipig, plasma, iv, 12 mg/ml; read-out: AUC 10 mm. (converted)
property.name: AUC (ng·h/mL)
Give the number; ng·h/mL is assumed, so skip it.

Incoming: Suppose we examine the compound CNS(=O)(=O)Cc1ccc2[nH]cc(CCN(C)C)c2c1 [sumatriptan] ; what AUC value has been reported?
Outgoing: 59.8

====

protocol.description: Crossover PK study: plasma sumatriptan by LC/MS/MS after ID/junctional vs SC administration (Tmax, Cmax, AUC, relative F)
Assay type: in vivo, Yucatan miniswine
recorded.conditions: Yucatan miniswine, minipig, plasma, 1 × 3 mm × 30 g, 30 mg/ml; read-out: AUC 10 mm. (converted)
property.name: AUC (ng·h/mL)
Give the number; ng·h/mL is assumed, so skip it.

Incoming: Suppose we examine the compound CNS(=O)(=O)Cc1ccc2[nH]cc(CCN(C)C)c2c1 ; what AUC value has been reported?
Outgoing: 86.4

====

protocol.description: Crossover PK study: plasma sumatriptan by LC/MS/MS after ID/junctional vs SC administration (Tmax, Cmax, AUC, relative F)
Assay type: in vivo, Yucatan miniswine
recorded.conditions: Yucatan, minipig, plasma, 3 × 3 mm × 34 g, 30 mg/ml; read-out: AUC 10 mm. (converted)
property.name: AUC (ng·h/mL)
Give the number; ng·h/mL is assumed, so skip it.

Incoming: Suppose we examine the compound CNS(=O)(=O)Cc1ccc2[nH]cc(CCN(C)C)c2c1 [sumatriptan] ; what AUC value has been reported?
Outgoing: 53.4

====

protocol.description: Crossover PK study: plasma sumatriptan by LC/MS/MS after ID/junctional vs SC administration (Tmax, Cmax, AUC, relative F)
Format: in vivo, Yucatan miniswine
recorded.conditions: Yucatan miniswine, minipig, plasma, 1 × 1.5 mm × 30 g, 0 mg/ml; read-out: AUC 10 mm. (converted)
property.name: AUC (ng·h/mL)
Give the number; ng·h/mL is assumed, so skip it.

Incoming: Suppose we examine the molecule CNS(=O)(=O)Cc1ccc2[nH]cc(CCN(C)C)c2c1 ; what AUC value has been reported?
Outgoing: 84.7

====

protocol.description: Crossover PK study: plasma sumatriptan by LC/MS/MS after ID/junctional vs SC administration (Tmax, Cmax, AUC, relative F)
Format: in vivo, Yucatan miniswine
recorded.conditions: Yucatan, minipig, plasma, 3 × 3 mm × 34 g, 12 mg/ml
property.name: Cmax (ng/mL)
Give the number; ng/mL is assumed, so skip it.

Incoming: Suppose we examine the compound CNS(=O)(=O)Cc1ccc2[nH]cc(CCN(C)C)c2c1 [sumatriptan] ; what Cmax value has been reported?
Outgoing: 706

====

protocol.description: Crossover PK study: plasma sumatriptan by LC/MS/MS after ID/junctional vs SC administration (Tmax, Cmax, AUC, relative F)
Type: in vivo, Yucatan miniswine
recorded.conditions: Yucatan miniswine, minipig, plasma, 3 × 2 mm × 34 g, 30 mg/ml
property.name: Cmax (ng/mL)
Give the number; ng/mL is assumed, so skip it.

Incoming: Suppose we examine the compound CNS(=O)(=O)Cc1ccc2[nH]cc(CCN(C)C)c2c1 [sumatriptan] ; what Cmax value has been reported?
Outgoing: 726

====

protocol.description: Crossover PK study: plasma sumatriptan by LC/MS/MS after ID/junctional vs SC administration (Tmax, Cmax, AUC, relative F)
Format: in vivo, Yucatan miniswine
recorded.conditions: Yucatan miniswine, minipig, plasma, 3 × 3 mm × 34 g, 30 mg/ml
property.name: Cmax (ng/mL)
Give the number; ng/mL is assumed, so skip it.

Incoming: Suppose we examine the compound CNS(=O)(=O)Cc1ccc2[nH]cc(CCN(C)C)c2c1 ; what Cmax value has been reported?
Outgoing: 649

====

protocol.description: Crossover PK study: plasma sumatriptan by LC/MS/MS after ID/junctional vs SC administration (Tmax, Cmax, AUC, relative F)
Assay type: in vivo, Yucatan miniswine
recorded.conditions: Yucatan miniswine, minipig, plasma, sc, 12 mg/ml
property.name: Cmax (ng/mL)
Give the number; ng/mL is assumed, so skip it.

Incoming: Suppose we examine the compound CNS(=O)(=O)Cc1ccc2[nH]cc(CCN(C)C)c2c1 ; what Cmax value has been reported?
Outgoing: 527

====

protocol.description: Crossover PK study: plasma sumatriptan by LC/MS/MS after ID/junctional vs SC administration (Tmax, Cmax, AUC, relative F)
Assay type: in vivo, Yucatan miniswine
recorded.conditions: Yucatan, minipig, plasma, 3 × 3 mm × 34 g, 12 mg/ml; read-out: AUC 10 mm. (converted)
property.name: AUC
The reply should read as a number followed by its unit.

Incoming: Suppose we examine the molecule CNS(=O)(=O)Cc1ccc2[nH]cc(CCN(C)C)c2c1 ; what AUC value has been reported?
Outgoing: 52.8 ng·h/mL

====

protocol.description: Crossover PK study: plasma sumatriptan by LC/MS/MS after ID/junctional vs SC administration (Tmax, Cmax, AUC, relative F)
Type: in vivo, Yucatan miniswine
recorded.conditions: Yucatan, minipig, plasma, iv, 12 mg/ml
property.name: Cmax (ng/mL)
Give the number; ng/mL is assumed, so skip it.

Incoming: Suppose we examine the compound CNS(=O)(=O)Cc1ccc2[nH]cc(CCN(C)C)c2c1 ; what Cmax value has been reported?
Outgoing: 661

====

protocol.description: Crossover PK study: plasma sumatriptan by LC/MS/MS after ID/junctional vs SC administration (Tmax, Cmax, AUC, relative F)
Type: in vivo, Yucatan miniswine
recorded.conditions: Yucatan miniswine, minipig, plasma, sc, 12 mg/ml; read-out: AUC 10 mm. (converted)
property.name: AUC (ng·h/mL)
Give the number; ng·h/mL is assumed, so skip it.

Incoming: Suppose we examine the compound CNS(=O)(=O)Cc1ccc2[nH]cc(CCN(C)C)c2c1 ; what AUC value has been reported?
Outgoing: 45.3

====

protocol.description: Crossover PK study: plasma sumatriptan by LC/MS/MS after ID/junctional vs SC administration (Tmax, Cmax, AUC, relative F)
Type: in vivo, Yucatan miniswine
recorded.conditions: Yucatan miniswine, minipig, plasma, 1 × 2 mm × 30 g, 30 mg/ml
property.name: Cmax (ng/mL)
Give the number; ng/mL is assumed, so skip it.

Incoming: Suppose we examine the compound CNS(=O)(=O)Cc1ccc2[nH]cc(CCN(C)C)c2c1 [sumatriptan] ; what Cmax value has been reported?
Outgoing: 849

====

protocol.description: Crossover PK study: plasma sumatriptan by LC/MS/MS after ID/junctional vs SC administration (Tmax, Cmax, AUC, relative F)
Type: in vivo, Yucatan miniswine
recorded.conditions: Yucatan miniswine, minipig, plasma, 3 × 2 mm × 34 g, 30 mg/ml; read-out: AUC 10 mm. (converted)
property.name: AUC (ng·h/mL)
Give the number; ng·h/mL is assumed, so skip it.

Incoming: Suppose we examine the molecule CNS(=O)(=O)Cc1ccc2[nH]cc(CCN(C)C)c2c1 [sumatriptan] ; what AUC value has been reported?
Outgoing: 69.5
